# credit: patent US12714725B2

Parameter: Concentration recovered, T6 M 5° C.. Scope: all listed entries.
assay: Stability of a mix of the 9 TE at pH 2.2 with 200 mM malic acid in a glass bottle; type: physicochemical; details: heat sterilized, 6 months at 5° C., about 3 ppm dissolved oxygen, pH 2.2, 200 mM malic acid

Some compounds with known Concentration recovered, T6 M 5° C. results, for comparison:
[Cl][Cr]([Cl])[Cl] [Cr, chromium chloride]
0.306 µg/mL
[I-].[K+] [I, potassium iodide]
3.167 µg/mL

[Q] What Concentration recovered, T6 M 5° C. value was documented for this compound, [Cl][Cu][Cl] [Cu, copper chloride] ?
[A] 9.784 µg/mL

[Q] What Concentration recovered, T6 M 5° C. value was documented for this compound, [Cl-].[Cl-].[Zn+2] [Zn, zinc chloride] ?
[A] 158.347 µg/mL

[Q] What Concentration recovered, T6 M 5° C. value was documented for this compound, [Na+].[Na+].[O]=[Mo](=[O])([O-])[O-] [Mo, sodium molybdate] ?
[A] 0.653 µg/mL

====

Parameter: Concentration recovered, T6 M 40° C.. Scope: all listed entries.
assay: Stability of a mix of the 9 TE at pH 2.2 with 200 mM malic acid in a glass bottle; type: physicochemical; conditions: heat sterilized, 6 months at 40° C., about 3 ppm dissolved oxygen, pH 2.2, 200 mM malic acid
Remember to quote the unit after the number.

Some compounds with known Concentration recovered, T6 M 40° C. results, for comparison:
[Cl][Cr]([Cl])[Cl] [Cr, chromium chloride]
329 ng/mL
[I-].[K+] [I, potassium iodide]
3401 ng/mL
[Na+].[Na+].[O]=[Mo](=[O])([O-])[O-] [Mo, sodium molybdate]
707 ng/mL
[Cl][Cu][Cl] [Cu, copper chloride]
10504 ng/mL

[Q] What Concentration recovered, T6 M 40° C. value was documented for this compound, [Cl-].[Cl-].[Zn+2] [Zn, zinc chloride] ?
[A] 171822 ng/mL

====

assay: Stability of a mix of the 9 TE at pH 2.2 with 200 mM malic acid in a glass bottle; assay type: physicochemical; conditions: heat sterilized, 6 months at 5° C., about 3 ppm dissolved oxygen, relative to theoretical concentration
Parameter: Percentage of the recovered TE, T6 M 5° C.. Scope: all listed entries.
Form entry: value (%) — number only.

Some compounds with known Percentage of the recovered TE, T6 M 5° C. results, for comparison:
[Cl][Cu][Cl] [Cu, copper chloride]
81.1
[Cl][Cr]([Cl])[Cl] [Cr, chromium chloride]
77.3
[Na+].[Na+].[O]=[Mo](=[O])([O-])[O-] [Mo, sodium molybdate]
79.9

[Q] What Percentage of the recovered TE, T6 M 5° C. value was documented for this compound, [I-].[K+] [I, potassium iodide] ?
[A] 78.6

[Q] What Percentage of the recovered TE, T6 M 5° C. value was documented for this compound, [Cl-].[Cl-].[Zn+2] [Zn, zinc chloride] ?
[A] 77.8

[Q] What Percentage of the recovered TE, T6 M 5° C. value was documented for this compound, [F-].[Na+] [F, sodium fluoride] ?
[A] 94

====

Parameter: Percentage of the recovered TE, T6 M 40° C.. Scope: all listed entries.
experiment: Stability of a mix of the 9 TE at pH 2.2 with 200 mM malic acid in a glass bottle; format: physicochemical; settings: heat sterilized, 6 months at 40° C., about 3 ppm dissolved oxygen, relative to theoretical concentration

Some compounds with known Percentage of the recovered TE, T6 M 40° C. results, for comparison:
[F-].[Na+] [F, sodium fluoride]
88%
[I-].[K+] [I, potassium iodide]
84.4%
[Na+].[Na+].[O]=[Mo](=[O])([O-])[O-] [Mo, sodium molybdate]
86.6%
[Cl][Cr]([Cl])[Cl] [Cr, chromium chloride]
83.1%
[Cl-].[Cl-].[Zn+2] [Zn, zinc chloride]
84.4%

[Q] What Percentage of the recovered TE, T6 M 40° C. value was documented for this compound, [Cl][Cu][Cl] [Cu, copper chloride] ?
[A] 87.1%
